test target: 3',5'-cyclic-AMP phosphodiesterase 4B (Homo sapiens) (UniProt Q07343)
Sequence (Q07343 whole entry, looked up): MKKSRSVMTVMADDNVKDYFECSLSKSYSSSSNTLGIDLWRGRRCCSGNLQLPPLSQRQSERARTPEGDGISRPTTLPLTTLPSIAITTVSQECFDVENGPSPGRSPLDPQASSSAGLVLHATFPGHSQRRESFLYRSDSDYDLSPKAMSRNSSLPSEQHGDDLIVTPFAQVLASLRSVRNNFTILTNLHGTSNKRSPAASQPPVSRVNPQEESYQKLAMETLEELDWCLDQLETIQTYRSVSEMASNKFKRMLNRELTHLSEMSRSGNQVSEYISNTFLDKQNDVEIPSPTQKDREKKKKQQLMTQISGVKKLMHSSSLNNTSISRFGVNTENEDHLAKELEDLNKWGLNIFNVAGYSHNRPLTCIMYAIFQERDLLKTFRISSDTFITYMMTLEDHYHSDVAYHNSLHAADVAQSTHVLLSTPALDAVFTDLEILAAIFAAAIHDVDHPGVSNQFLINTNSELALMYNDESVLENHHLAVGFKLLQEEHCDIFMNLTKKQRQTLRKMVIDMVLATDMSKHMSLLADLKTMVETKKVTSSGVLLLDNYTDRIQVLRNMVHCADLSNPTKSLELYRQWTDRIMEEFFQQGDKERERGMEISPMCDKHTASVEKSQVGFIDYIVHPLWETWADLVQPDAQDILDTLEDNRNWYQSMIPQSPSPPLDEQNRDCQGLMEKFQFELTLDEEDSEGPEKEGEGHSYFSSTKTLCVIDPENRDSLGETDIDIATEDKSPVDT
test method notes: qHTS Assay for Inhibitors of PDE-IV (AID 607); also: % of control where 0% means no effect
experimental parameters: HEK293 ACTOne CNG channel cells, membrane potential fluorescence; series mostly up to 22.9 µM
Results filed as inconclusive are left out. Active and inactive are the calls of the source. Calls follow the shape of the dose curve; as a rule, active = well fitted activation curve with a large enough effect in the main read-out, with a control signal flat (not every such curve was filed as active); inconclusive = small, poorly fitted or top-dose-only effect, or effect the other way, or a change in a side signal; inactive = flat fitted curve, though single readings scatter.
recorded endpoint: outcome

>>> result_value("CC(=O)N1CCN(C)CC1")
"inactive"
>>> result_value("O=C(NC1CCN(Cc2ccccc2)CC1)c1ccc(I)cc1")
"inactive"
>>> result_value("CC1=C(\\C=C/C(C)=C/C=C\\C(C)=C\\C(=O)O)C(C)(C)CCC1")
"inactive"
>>> result_value("Cc1o[nH]c(=O)c1CC[C@H](N)C(=O)O")
"inactive"
>>> result_value("CCC(=O)N[C@@H]1CCc2cccc(OC)c2C1")
"inactive"

Query :: Given the compound Cn1cnc2c(NC3CCCC3)ncnc21 , what is its reported outcome?
Result :: inactive

Query :: Would you mind telling me what outcome value was observed for N[C@]1(C(=O)O)CCc2cc(P(=O)(O)O)ccc21 ?
Result :: inactive

Query :: Any idea what outcome was measured for NCCC(=O)O ?
Result :: inactive

Query :: Reported outcome for CN1CCN(CCc2ccc(Cl)c(Cl)c2)CC1 : what is it?
Result :: inactive

Query :: What does the data say about its outcome? Entry: O=C(Nc1ccccc1)N[C@H]1C[C@H](C(=O)O)Nc2cc(Cl)cc(Cl)c21
Result :: inactive

Query :: Item under review: CC1(COc2ccc(C[C@H]3SC(=O)NC3=O)cc2)CCCCC1 . Reported outcome?
Result :: inactive

Query :: Entry under review: CC(C)[C@@H]1C(=O)N(S(C)(=O)=O)[C@H]2CCN(C(=O)/C=C\CN3CCCCC3)[C@@H]12 . Reported outcome?
Result :: inactive

---

Tested on: CP305
test method notes: qHTS profiling for inhibitors of Plasmodium falciparum proliferation (AID 504749); also: nearly all actives have a fitted effect of over 60% in size
experimental parameters: P. falciparum in erythrocytes, SYBR Green DNA, 72 h; series mostly up to 28.7 µM
Inconclusive results are not listed. Calls of active or inactive are those of the source. Calls follow the shape of the dose curve; as a rule, active = well fitted inhibition curve with a large enough effect; inconclusive = small, poorly fitted or top-dose-only effect; inactive = flat fitted curve, though single readings scatter.
Mark one answer only. Choices: active, inactive

Query :: For this molecule, state the assay outcome: CC(=O)[C@H]1CC[C@H]2C3CC=C4C[C@@H](O)CC[C@]4(C)C3CC[C@]12C (stereo partly specified)
Result :: inactive

Query :: Record request — test call for CC(C)C[C@@H](NC(=O)[C@H](Cc1ccccc1)NC(=O)c1cnccn1)B(O)O
Result :: active

Query :: Returns: the outcome recorded for O=C(CC1NCCC[C@H]1O)Cn1cnc2cc(Br)c(Cl)cc2c1=O (stereo partly specified) in this assay.
Result :: active

Query :: Recorded test outcome, item COC(=O)[C@@H]1[C@@H]2C[C@H]3c4[nH]c5ccccc5c4CCN3C[C@@H]2CC[C@@H]1O
Result :: inactive

Query :: Hey, what did the test say about C[C@@H](C(=O)O)c1ccc(-c2ccccc2)c(F)c1 ?
Result :: inactive

Query :: Assay result, entry C/C=C1\C2C=C(C)CC1(N)c1ccc(=O)[nH]c1C2 (stereo unspecified) — outcome?
Result :: inactive

---

Kindly state activity change, negative = inhibition for each of the entries shown.
test method notes: qHTS Assay for Lipid Storage Modulators (AID 1519); also: % is scaled to controls: 0 for no effect and ±100 for the full control effect
experimental parameters: Drosophila S3 cells, BODIPY lipid droplet/cell ratio, laser cytometry; at 57.5 µM (top of the series); cells loaded with oleic acid
Results filed as inconclusive are left out.
Give the value in % but do not write % after it.

Query :: Recorded activity change, negative = inhibition for CCCCCCCCCCCCCCCC(=O)NC(C)C , please?
Result :: 0.0182

Query :: Reported activity change, negative = inhibition for N[C@@H](CCCP(=O)(O)O)C(=O)O : what is it?
Result :: -1.39

Query :: Endpoint output: activity change, negative = inhibition of NC(N)=NCCC[C@@H](N)C(=O)O . Value?
Result :: -2.14

Query :: Consider the molecule Cc1ncc2c(c1O)COP(=O)(O)OC2 and give its measured activity change, negative = inhibition.
Result :: 0.354

Query :: Form field: reported activity change, negative = inhibition of CCCCC(=O)N(Cc1ccc(-c2ccccc2-c2nn[nH]n2)cc1)C(C(=O)O)C(C)C (stereo not drawn)
Result :: -6.27

Query :: Bench note: what activity change, negative = inhibition did N#Cc1cc2[nH]c(=O)c(=O)[nH]c2cc1[N+](=O)[O-] show?
Result :: 2.55

Query :: Requested read-out: activity change, negative = inhibition. Entry: COc1cc(N)c(Cl)cc1C(=O)OCCCN1CCCCC1
Result :: 2.57

Query :: Please report the recorded activity change, negative = inhibition for CC[C@](N)(CCC(=O)O)C(=O)O .
Result :: -0.484

Query :: Consider the molecule shown here: CCCCCCCCCCCC(=O)O[C@H](CC(=O)O)C[N+](C)(C)C What is its recorded activity change, negative = inhibition?
Result :: -2.15

Query :: Given N#C/C(=C\c1ccc(O)c(O)c1)C(=O)Nc1ccccc1 , state its recorded activity change, negative = inhibition.
Result :: -21.4

Query :: What value of activity change, negative = inhibition has been reported for the following molecule? O=C(O)Cc1cc(I)c(Oc2cc(I)c(O)c(I)c2)c(I)c1
Result :: 3.04

Query :: Look up activity change, negative = inhibition for this molecule: N[C@@H](C(=O)O)c1ccc(C(=O)O)cc1
Result :: 5.37

Query :: Consider the molecule N[C@H](Cc1cnc[nH]1)C(=O)O and give its measured activity change, negative = inhibition.
Result :: -0.699
